system: Human Polymorphonuclear Leukocyte Elastase (Homo sapiens)
Construct: Crude extract of human polymorphonuclear leukocytes (PMN) containing elastase activity; endogenous in cells; host or cells: human polymorphonuclear leukocytes (crude extract)
Sequence (P08246 30-247 limits assumed): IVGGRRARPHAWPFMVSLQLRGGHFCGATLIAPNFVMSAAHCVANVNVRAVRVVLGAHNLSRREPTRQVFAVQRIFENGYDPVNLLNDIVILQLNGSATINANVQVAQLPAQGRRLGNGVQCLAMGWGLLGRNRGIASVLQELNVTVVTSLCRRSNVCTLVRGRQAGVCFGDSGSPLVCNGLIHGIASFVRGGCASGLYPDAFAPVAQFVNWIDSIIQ
assayExplanation: Inhibition of human polymorphonuclear leukocyte (granulocyte) elastase via hydrolysis of Boc-AAPAN
Assay type: biochemical
endpointName: IC50 (nM)
Give bare numbers, in nM.

Example entries and their recorded answers appear below.
CC(=O)O[C@H]1C(=O)N2[C@@H](C(=O)OCc3ccccc3)C(C)(C)S(=O)(=O)[C@H]12 : 524
Cc1ccc(S(=O)(=O)OC2C(=O)N3[C@@H](C(=O)OCc4ccccc4)C(C)(C)S(=O)(=O)[C@H]23)cc1 (stereo partly drawn) : 101
CC1(C)[C@H](C(=O)OCc2ccccc2)N2C(=O)[C@@H](COC(=O)NCc3ccccc3)[C@H]2S1(=O)=O : 1440

List reported IC50 for each of these compounds:
1. CCO[C@H]1C(=O)N2[C@@H](C(=O)OCc3ccc(C(=O)O)cc3)C(C)(C)S(=O)(=O)[C@H]12
2. CN(C(=O)C(F)(F)F)[C@H]1C(=O)N2[C@@H](C(=O)OCc3ccccc3)C(C)(C)S(=O)(=O)[C@H]12

Result:
1. 1460
2. 446

Problem: Dear colleague, I am looking for the recorded IC50 of the following compound: `CC1(C)[C@H](C(=O)OCc2ccccc2)N2C(=O)[C@H](NC(=O)C(F)(F)F)[C@H]2S1(=O)=O`
Result: 345
